Task for the reader: assign each of the following compounds its reported Papp A→B at 10 µM.
- protocol notes: Apparent permeability from apical to basolateral side in human Caco-2 cells at 10 uM
- Assay type: ADME, cell-based
Answer format reminder: number followed by unit.

Query: Sample CC(C)(C)CCn1nc(-c2cccs2)c(O)c(C2=Nc3ccc(NS(C)(=O)=O)cc3S(=O)(=O)N2)c1=O — what was its Papp A→B at 10 µM?
Reply: 0.06 ×10⁻⁶ cm/s

---
Query: Sample CC(C)CCn1nc(-c2cccs2)c(O)c(C2=Nc3ccc(NS(C)(=O)=O)cc3S(=O)(=O)N2)c1=O — what was its Papp A→B at 10 µM?
Reply: 0.016 ×10⁻⁶ cm/s

====

- protocol notes: Aqueous solubility at pH 7.4
- Assay type: physicochemical
- run conditions: buffer
measured quantity: solubility (µM)
Answers are plain numbers, in µM.

Query: Sample CC(C)CCn1nc(-c2cccs2)c(O)c(C2=Nc3ccc(NS(C)(=O)=O)cc3S(=O)(=O)N2)c1=O — what was its solubility?
Reply: 55

Next item in the queue.
Query: Sample CC(C)(C)CCn1nc(-c2cccs2)c(O)c(C2=Nc3ccc(NS(C)(=O)=O)cc3S(=O)(=O)N2)c1=O — what was its solubility?
Reply: 44

====

- protocol notes: Ratio of drug level in liver to plasma in Sprague-Dawley rat at 3 mg/kg, po after 4 hrs
- Format: ADME, organism-based
- Parameters: dose 3 mg/kg, route oral
- run conditions: liver and plasma
measured quantity: Kp at 4 h
Give bare numbers.

Query: Sample CC(C)CCn1nc(-c2cccs2)c(O)c(C2=Nc3ccc(NS(C)(=O)=O)cc3S(=O)(=O)N2)c1=O — what was its Kp at 4 h?
Reply: 243

====

- protocol notes: Ratio of drug level in liver to plasma in Sprague-Dawley rat at 3 mg/kg, iv after 12 hrs
- Type: ADME, organism-based
- Parameters: dose 3 mg/kg, route intravenous
- run conditions: liver and plasma
measured quantity: Kp at 12 h
Answers are plain numbers.

Query: Sample CC(C)CCn1nc(-c2cccs2)c(O)c(C2=Nc3ccc(NS(C)(=O)=O)cc3S(=O)(=O)N2)c1=O — what was its Kp at 12 h?
Reply: 4

====

- protocol notes: Oral bioavailability in Sprague-Dawley rat
- Assay type: ADME, organism-based
- run conditions: in vivo
measured quantity: bioavailability (%)
Give bare numbers, in %.

Query: Sample CC(C)CCn1nc(-c2cccs2)c(O)c(C2=Nc3ccc(NS(C)(=O)=O)cc3S(=O)(=O)N2)c1=O — what was its bioavailability?
Reply: 1

====

- protocol notes: Volume of distribution at steady state in iv dosed Sprague-Dawley rat
- Type: ADME, organism-based
- run conditions: in vivo, read-out: Vdss
measured quantity: Vd
Answer format reminder: number followed by unit.

Query: Sample CC(C)CCn1nc(-c2cccs2)c(O)c(C2=Nc3ccc(NS(C)(=O)=O)cc3S(=O)(=O)N2)c1=O — what was its Vd?
Reply: 0.453 L/kg
